Reference for the values: patent US20100113517A1

# Experiment: Phase I ascending single oral dose study, pharmacokinetics
# Assay type: in vivo, healthy volunteers (human)
# Condition notes: male, human, urine, oral; as doses increased from 25 mg to 675 mg; read-out: mean renal clearance
Endpoint label: CL renal

I would be grateful if you could share the reported CL renal for OCC1NCC(O)C(O)C1O (stereo not shown) . 98.3 to 128 mL/min

###

# Experiment: Phase I ascending single oral dose study, pharmacokinetics
# Assay type: in vivo, healthy volunteers (human)
# Condition notes: male, human; single oral dose 675 mg, plasma, geometric mean
Endpoint label: Cmax (ng/mL)
Express your answer in ng/mL, writing the number without its unit.

Fill in: Cmax of OCC1NCC(O)C(O)C1O (stereo not shown) is ___ 6490

###

# Experiment: Phase I ascending single oral dose study, pharmacokinetics
# Format: in vivo, healthy volunteers (human)
# Condition notes: male, human; single oral dose 75 mg, plasma, geometric mean
# Experimental: This example describes a randomized, double blind, placebo controlled Phase I study of ascending single oral dose of DGJ to evaluate the safety, tolerability and pharmacokinetics of DGJ in healthy volunteers. Study Design and Duration. […] Dose escalation to the next dose level (i.e., next group) proceeded following review of safety and tolerability of the previous group(s). Subjects were housed in the treatment facility from 14 hours prior to dosing until 24 hours after dosing. […]
Endpoint label: Cmax (ng/mL)
Field: numeric (ng/mL). Do not append units.

So what does the record say about Cmax for OCC1NCC(O)C(O)C1O (stereo not shown) ? 685

###

# Experiment: Phase I ascending single oral dose study, pharmacokinetics
# Assay type: in vivo, healthy volunteers (human)
# Condition notes: male, human, urine; single oral dose 675 mg; read-out: CLR (converted)
Endpoint label: CL renal (mL/min)
Entry rule: numbers only, all in mL/min.

May I ask what CL renal has been recorded for OCC1NCC(O)C(O)C1O (stereo not shown) ? 128

###

# Experiment: Phase I ascending single oral dose study, pharmacokinetics
# Format: in vivo, healthy volunteers (human)
# Condition notes: male, human, plasma; single oral dose 225 mg; read-out: t1/2 (converted)
Endpoint label: half-life (h)
Give the quantity in h, number only.

Report half-life for OCC1NCC(O)C(O)C1O (stereo not shown) please. 4.62

###

# Experiment: Phase Ib twice daily oral dose study, pharmacokinetics
# Format: in vivo, healthy volunteers (human)
# Condition notes: human, plasma, oral, 150 mg, 150 mg bid, Day 7
Endpoint label: Cmax

// returns reported Cmax for input OCC1NCC(O)C(O)C1O (stereo not shown) [DGJ, 1-deoxygalactonojirimycin] 10.8 µM

###

# Experiment: Phase I ascending single oral dose study, pharmacokinetics
# Format: in vivo, healthy volunteers (human)
# Condition notes: male, human; single oral dose 225 mg, plasma, geometric mean
Endpoint label: Cmax (ng/mL)
Hi! Could you send only the number? It should be in ng/mL, unit omitted.

Quick check: Cmax of OCC1NCC(O)C(O)C1O (stereo not shown) ? 2000

###

# Experiment: Phase Ib twice daily oral dose study, pharmacokinetics
# Assay type: in vivo, healthy volunteers (human)
# Condition notes: human, plasma, oral, 150 mg, 150 mg bid, Day 1
Endpoint label: Tmax (h)
Quick note: give the figure in h, leave out the unit.

Could you tell me which Tmax is on file for OCC1NCC(O)C(O)C1O (stereo not shown) ? 3.1

###

# Experiment: Phase Ib twice daily oral dose study, pharmacokinetics
# Format: in vivo, healthy volunteers (human)
# Condition notes: human, plasma, oral, 50 mg, 50 mg bid, Day 1
Endpoint label: Tmax (h)
Numeric answer only, unit h assumed.

Recorded Tmax of OCC1NCC(O)C(O)C1O (stereo not shown) , please. 2.9
